Cited source: patent US12534469B2

Target: FLT3 D835H (Homo sapiens, UniProt P36888, D835H)
Sequence (P36888 27-993 D835H): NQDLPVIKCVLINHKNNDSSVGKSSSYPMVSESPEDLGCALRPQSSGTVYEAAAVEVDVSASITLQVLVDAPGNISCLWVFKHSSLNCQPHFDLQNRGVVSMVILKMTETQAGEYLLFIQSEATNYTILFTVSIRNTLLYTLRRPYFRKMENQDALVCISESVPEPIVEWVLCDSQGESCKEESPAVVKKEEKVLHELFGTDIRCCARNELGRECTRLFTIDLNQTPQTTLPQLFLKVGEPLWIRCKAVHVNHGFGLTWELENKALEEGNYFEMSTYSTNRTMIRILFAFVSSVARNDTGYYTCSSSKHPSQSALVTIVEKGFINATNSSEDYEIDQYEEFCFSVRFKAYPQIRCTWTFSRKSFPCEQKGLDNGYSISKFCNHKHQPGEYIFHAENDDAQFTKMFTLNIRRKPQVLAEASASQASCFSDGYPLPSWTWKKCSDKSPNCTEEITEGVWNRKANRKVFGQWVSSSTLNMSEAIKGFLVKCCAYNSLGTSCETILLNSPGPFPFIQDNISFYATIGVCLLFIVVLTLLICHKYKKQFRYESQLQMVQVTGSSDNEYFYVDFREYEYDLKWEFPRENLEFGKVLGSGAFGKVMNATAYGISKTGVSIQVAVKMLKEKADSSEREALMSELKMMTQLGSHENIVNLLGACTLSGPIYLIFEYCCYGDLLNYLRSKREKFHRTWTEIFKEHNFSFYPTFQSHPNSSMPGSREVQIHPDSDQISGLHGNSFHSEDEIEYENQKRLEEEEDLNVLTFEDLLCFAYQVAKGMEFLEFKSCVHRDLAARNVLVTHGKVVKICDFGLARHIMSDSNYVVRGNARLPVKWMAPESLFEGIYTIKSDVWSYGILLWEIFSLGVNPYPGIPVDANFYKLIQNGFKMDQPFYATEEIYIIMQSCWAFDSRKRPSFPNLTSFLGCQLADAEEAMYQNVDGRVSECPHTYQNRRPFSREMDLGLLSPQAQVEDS
Experiment: DiscoverX KINOMEscan competition binding assay, FLT3 D835H
Assay metric: Kd (nM)

COc1cc2ncc(-c3cccc(N[C@H]4CNC[C@@H]4F)n3)n2nc1C1CC1    0.23
COc1cc2ncc(-c3cccc(N[C@H]4CNCC[C@@H]4F)n3)n2nc1C1CC1    0.21
COc1cc2ncc(-c3cccc(N[C@@H]4CCNC4)n3)n2nc1C1CC1    0.18
